Cited source for all entries: paper PMC10525585

- Test system: HepG2 (ATCC HB-8065) cells
- test.protocol: Cytotoxicity assay (PrestoBlue)
- Type: cell-based, Human
- experimental.context: Table 1 and text; 24 h incubation; read-out: CC50 (µM) HepG2
quantity.measured: CC50 (µM)
One number for each entry, in µM.

Q: Please report CC50 for the following compound: O=C(c1ccccc1O)c1n[nH]nc1-c1ccc(Cl)cc1 [AT106]
Ans: 70.7

---

- Tested on: HepG2 (ATCC HB-8065) cells
- test.protocol: Cytotoxicity assay (PrestoBlue)
- Type: cell-based, Human
quantity.measured: CC50 (µM)
Give bare numbers, in µM.

compound: N#Cc1ccc(-c2n[nH]nc2C(=O)c2ccccc2O)cc1 [AT100]
CC50 / µM: 70.7

Count: 2. Required value per item: CC50.
1. N#Cc1ccc(-c2n[nH]nc2C(=O)c2ccc(Cl)cc2O)cc1 [AT120]
2. O=C(c1ccccc1O)c1n[nH]nc1-c1ccc([N+](=O)[O-])cc1 [AT103]

Ans:
[38.1, 2.65]

Count: 2. Required value per item: CC50.
1. Cc1ccc(-c2n[nH]nc2C(=O)c2cccc(Cl)c2O)cc1 [AT123]
2. N#Cc1ccc(-c2n[nH]nc2C(=O)c2cccc(Br)c2O)cc1 [AT124]

Ans:
1. 58.7
2. 3.85

---

Assign hemolysis at 1 h, 12.5 µM to each entry below.
- test.protocol: Hemolysis assay
- Format: cell-based, human
- experimental.context: human, human red blood cells (0.5% final suspension, single donor); 12.5 µM, 1 h, 37 °C; read-out: Hemolysis by AT Compounds (%)
Numbers only, in %.

compound: O=C(c1ccccc1O)c1n[nH]nc1-c1cccc(C(F)(F)F)c1 [AT116]
numeric.value: 2.3

Count: 2. Required value per item: hemolysis at 1 h, 12.5 µM.
1. O=C(c1ccccc1O)c1n[nH]nc1-c1ccc(Br)s1 [AT137]
2. O=C(c1ccccc1O)c1n[nH]nc1-c1ccc(Cl)cc1 [AT106]

Ans:
1. -0.8
2. 1.2

---

- test.protocol: Hemolysis assay
- Assay type: cell-based, human
- experimental.context: human, human red blood cells (0.5% final suspension, single donor); 6.25 µM, 1 h, 37 °C; read-out: Hemolysis by AT Compounds (%)
Assign hemolysis at 1 h, 6.25 µM to each entry below.
One number for each entry, in %.

Count: 3. Required value per item: hemolysis at 1 h, 6.25 µM.
1. O=C(c1ccccc1O)c1n[nH]nc1-c1cccc(C(F)(F)F)c1
2. O=C(c1ccccc1O)c1n[nH]nc1-c1ccc(Cl)cc1
3. O=C(c1ccccc1O)c1n[nH]nc1-c1ccc(Br)s1

Ans:
-0.7
-0.1
-0.5

---

- Test system: HeLa (ATCC CCL-2) cells
- test.protocol: Cytotoxicity assay (PrestoBlue)
- experimental.context: read-out: CC50 HeLa; Table S1
quantity.measured: CC50 (µM)
Give bare numbers, in µM.

given.smiles: N#Cc1ccc(-c2n[nH]nc2C(=O)c2ccccc2O)cc1
test.target: HeLa (ATCC CCL-2) cells
numeric.value: 19.1

Q: Please report CC50 for the following molecule: `Cc1ccc(-c2n[nH]nc2C(=O)c2cccc(Cl)c2O)cc1`
Ans: 14.4

---

- test.protocol: Cytotoxicity assay (PrestoBlue)
- Type: cell-based, Human
- experimental.context: human, HepG2 cells (ATCC HB-8065), Table 1 and text; 24 h incubation
quantity.measured: CC50 at 24 h (µM)
Answers are plain numbers, in µM.

given.smiles: O=C(c1ccccc1O)c1n[nH]nc1-c1cccc(C(F)(F)F)c1
CC50 at 24 h [µM]: 50.9

As a next step, examine the compound that follows.
Q: Please report CC50 at 24 h for the following compound: `O=C(c1ccccc1O)c1n[nH]nc1-c1ccc(Br)s1`
Ans: 39.8

---

Assign CC50 at 24 h to each entry below.
- test.protocol: Cytotoxicity assay (PrestoBlue)
- experimental.context: human, HeLa cells (ATCC CCL-2), CC50 HeLa (µM), Table S1

Example compounds with recorded CC50 at 24 h:
compound: O=C(c1ccccc1O)c1n[nH]nc1-c1ccc(Cl)cc1 [AT106]
CC50 at 24 h: 16.2 µM
--
compound: O=C(c1ccccc1O)c1n[nH]nc1-c1ccc(Br)s1 [AT137]
CC50 at 24 h: 12.7 µM

Q: Please report CC50 at 24 h for the following compound: O=C(c1ccccc1O)c1n[nH]nc1-c1cccc(C(F)(F)F)c1 [AT116]
Ans: 11.7 µM
